This listing pairs proteins with measured Enzyme Activity Endpoint Assay: scIgG.
assayedTarget: pooled human IgG (human IgG1, 2, 3 and 4)

Reference set, count: 3
PRT-544 (protein) MANQEIRYSKNENPNVTIKWVHGIGEPTQAEKEKIEFWWYETTTTKFFNNRKVDHLGDGNQCWAKTDSNMLHWWFVQNEENINQYIAKKNITGKINFNGEQMFDVKEGIDDNQEKEKSYIANTFRTKKAHNLSTKHKGDYIINGLSWYLYGLNNFKIAHGPTPVKKKPKFYGPALFKDVFNRGDGNTPIIVETDFKEYTKKEFEDTLSAALDSKKAIGINIYGSNVDYQHAITLWGAAFDEEENIIAIYVVDNNFKFENRIFPYGIWYQKEGRPYLFNYEINSFVKNRYVGEVITLDKGEAQWQETNLEHHHHHH ... 748 ng/µL
PRT-245 (protein) MVTSVWTKGVTPPANFTQGEDVFHAPYVANQGWYDITKLFNGKDDLLCGAATAGNMLHWWFDQNKDQIKRYLEEHPEKQKINFNGEQMFDVKEAIDTKNHQLDSKLFEYFLEKAFPNLSTKHLGVFPDHVIDMFINGYRLSLLNHGPTPVKEGSKDPRGGIFDAVFTRGDQSKLLTSRHDFKEKNLKEISDLIKKELTEGKALGLSHTYANGRINHVINLWGADFDSNGNLKAIAVTDSDSNASIGMKKYFVGVNSSGKVAISAKEIKEDNIGAQVLGLFTLSTGQDSWNQTN ... 204 ng/µL
PRT-261 (protein) MVTSVWTKGVTPPTNFTYGEDVLHAPYVANQGWYDITKLFNGKDNLLCGAATAGNMLHWWFDQNKEQIENYLKKHPEKQKINFNGEQLFDVKEAIDTKDSQLDSKLFDYFKEKAFPNLSTKHLGVFPDHVIDMFINGYRLSLLNHGPTPVKRGSKDKRGGIFDAVFTRGVQSKLLTNRHDFKEKTLKEISDLIKQELTEGKALGISHTYANGRINHVINLWGADFDAEGNLEAIYVTDSDTNPSIGMKKYFVGVNSSGKVAISAKEIEEDNIGAQVLGLFTLSTGQDIWNQTN ... 317 ng/µL

Let us examine a further case.
Input: Query: Enzyme Activity Endpoint Assay: scIgG; subject: PRT-554 (protein) MANQEIRYSEETPKTITSVWTKGVTPPTDFIKNEDVFHAPYVANQGWYDITKTFNGKDDLLCGAATAGNMLHWWFDQNKEEIENYLKKHPEKQKINFNGEQMFDVKEAIDTKDSQTDSALFNYFKDKAFPYLSTKHLGVFPDHVIDMFINGYRLSLTNHGPTPVKDGTKDPRGGIFDAVFTRGDQTKLLTARHDFKEKTLNEISDLIKQELTEGKALGLSHTYANVRINHVINLWGADFDSEGNLEAIYVTDSDSNASIGMKKYYVGVNAAGKVAISAKEIEDDNIGAQVLGLFTLSTGQDIWEQTNLEHHHHHH
Output: 0 ng/µL
